assay-target: human TRPV1 receptor (hTRPV1) (Homo sapiens)
Construct: expressed in transfected cells
Sequence (Q8NER1 whole entry): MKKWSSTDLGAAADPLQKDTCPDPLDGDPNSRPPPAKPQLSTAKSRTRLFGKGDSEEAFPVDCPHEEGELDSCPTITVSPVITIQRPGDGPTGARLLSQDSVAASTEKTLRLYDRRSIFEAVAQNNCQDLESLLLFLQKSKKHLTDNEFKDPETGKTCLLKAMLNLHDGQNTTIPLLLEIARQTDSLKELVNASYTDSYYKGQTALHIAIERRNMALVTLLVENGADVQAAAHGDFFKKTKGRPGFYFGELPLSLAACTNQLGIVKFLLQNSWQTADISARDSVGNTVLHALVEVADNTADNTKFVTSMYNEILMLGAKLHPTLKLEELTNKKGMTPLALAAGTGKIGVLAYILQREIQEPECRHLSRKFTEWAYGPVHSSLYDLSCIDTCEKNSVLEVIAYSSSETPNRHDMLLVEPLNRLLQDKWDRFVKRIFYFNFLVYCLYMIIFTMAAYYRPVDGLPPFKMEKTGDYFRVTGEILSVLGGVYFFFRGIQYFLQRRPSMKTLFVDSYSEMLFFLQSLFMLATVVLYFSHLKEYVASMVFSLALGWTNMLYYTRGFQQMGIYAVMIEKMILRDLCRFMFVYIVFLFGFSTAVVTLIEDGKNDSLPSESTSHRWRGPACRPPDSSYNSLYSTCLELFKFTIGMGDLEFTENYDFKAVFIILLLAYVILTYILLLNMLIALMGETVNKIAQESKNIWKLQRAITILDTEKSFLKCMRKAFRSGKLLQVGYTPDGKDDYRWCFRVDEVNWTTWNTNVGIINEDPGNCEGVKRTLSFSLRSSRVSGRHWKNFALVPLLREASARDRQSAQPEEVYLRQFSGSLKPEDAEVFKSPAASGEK
protocol-summary: Capsaicin activation assay (Ca2+ influx, FLIPR)
Type: cell-based
test-conditions: hTRPV1 in 1321N1 cells, 0.05 μM capsaicin
pIC50: −log10 of the molar value.
Decide by pIC50: equal to or exceeding 8 means 1, less means -1.

Check this compound for pIC50 at or above 8: CCCC1(CCC)C[C@@H](NC(=O)Nc2cccc3c2cnn3C)c2cccc(F)c2O1
-1

Check this compound for pIC50 at or above 8: Cc1cc2c(NC(=O)N[C@@H]3CC(C)(C)Oc4c3ccc(F)c4Cl)cccc2cn1
-1

Check this compound for pIC50 at or above 8: CC1(C)C[C@@H](NC(=O)Nc2cccc3cnccc23)c2ccc(C(F)(F)F)cc2O1
1

Check this compound for pIC50 at or above 8: CC1(C)C[C@@H](NC(=O)Nc2cccc3cnccc23)c2ccccc2O1
-1

Check this compound for pIC50 at or above 8: Cc1cc2c(NC(=O)N[C@@H]3CC(CF)(CF)Oc4c(Cl)cccc43)cccc2cn1
-1

Check this compound for pIC50 at or above 8: Cc1cc2c(NC(=O)N[C@@H]3CC(CF)(CF)Oc4c(F)cccc43)cccc2cn1
-1

Check this compound for pIC50 at or above 8: CCC1(CC)C[C@@H](NC(=O)Nc2cccc3cnc(C)cc23)c2ccc(Cl)cc2O1
1

Check this compound for pIC50 at or above 8: Cc1cc2c(NC(=O)N[C@@H]3CC(CF)(CF)Oc4ccccc43)cccc2cn1
-1

Check this compound for pIC50 at or above 8: Cc1cc2c(NC(=O)N[C@@H]3CC(C)(C)Oc4c(F)cccc43)cccc2cn1
-1

* * *

assay-target: CYP2C9 (Homo sapiens)
Construct: human liver microsomes (BD Gentest); tissue BD Gentest; host or cells: human liver microsomes
Sequence (P11712 whole entry): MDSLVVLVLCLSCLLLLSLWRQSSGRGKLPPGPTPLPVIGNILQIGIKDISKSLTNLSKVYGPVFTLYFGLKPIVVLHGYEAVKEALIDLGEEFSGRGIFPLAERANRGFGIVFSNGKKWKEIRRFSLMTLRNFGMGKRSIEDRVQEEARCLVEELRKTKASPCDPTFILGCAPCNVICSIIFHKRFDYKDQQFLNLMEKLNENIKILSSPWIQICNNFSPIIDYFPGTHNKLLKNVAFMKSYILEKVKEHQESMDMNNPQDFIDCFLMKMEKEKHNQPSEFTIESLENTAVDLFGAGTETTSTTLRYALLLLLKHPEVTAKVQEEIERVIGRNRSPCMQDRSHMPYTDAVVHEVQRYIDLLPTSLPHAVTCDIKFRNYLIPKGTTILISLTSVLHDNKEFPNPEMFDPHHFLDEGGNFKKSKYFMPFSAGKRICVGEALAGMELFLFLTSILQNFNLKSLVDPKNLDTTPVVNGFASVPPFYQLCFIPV
protocol-summary: CYP2C9 inhibition assay
Type: in vitro ADME
test-conditions: pH 7.4, probe Luciferin-H (100 μM final), human liver microsomes, substrate Luciferin-H, read-out: CYP2C9 % inh @ 2.2 μM
Method: Stock solutions of test compounds were assayed in 96-well format for their ability to inhibit CYP2C9, CYP2D6, or CYP3A4 mediated metabolism of test substrates. Luciferin-H was used as the substrate for CYP2C9; 3-[2-(N,N-diethyl-N-methylammonium)ethyl]-7-methoxy-4-methylcoumarin (AMMC) was used as the substrate for CYP2D6; 7-benzyloxyquiniline (BZQ) was used as the substrate for CYP3A4. […]
Decide by inhibition at 25 min, 2.2 µM: equal to or exceeding 8% means MET, less means NOT MET.

Check this compound for inhibition at 25 min, 2.2 µM at or above 8%: Cc1cc2c(NC(=O)N[C@@H]3C[C@@](C)(CF)Oc4cc(Cl)ccc43)cccc2cn1 (single isomer, unassigned) [Example 122]
MET

Check this compound for inhibition at 25 min, 2.2 µM at or above 8%: CC1(C)C[C@@H](NC(=O)Nc2cccc3cnccc23)c2ccc(F)cc2O1 [Example 23]
MET

Check this compound for inhibition at 25 min, 2.2 µM at or above 8%: CCC1(CC)C[C@@H](NC(=O)Nc2cccc3cnc(Cl)cc23)c2cccc(F)c2O1 [Example 81]
MET

Check this compound for inhibition at 25 min, 2.2 µM at or above 8%: Cc1cc2c(NC(=O)N[C@@H]3CC(CF)(CF)Oc4cc(Cl)ccc43)cccc2cn1 [Example 84]
NOT MET

Check this compound for inhibition at 25 min, 2.2 µM at or above 8%: Cc1cc2c(NC(=O)N[C@@H]3CCOc4c(OC(F)(F)F)cccc43)cccc2cn1 [Example 66]
NOT MET

Value source: patent US8604053B2
